Taken from ChEMBL document CHEMBL2434871.

# procedureDetails: Elimination half life in Wistar rat at 100 mg/kg, po
# Format: ADME, organism-based
# Parameters: dose 100 mg/kg, route oral
# setupConditions: in vivo, read-out: beta t1/2 (converted)
Task for the reader: assign each of the following compounds its reported half-life.
Output spec: scalar in h, unitless text.

For the compound C[S+]([O-])CCNCc1ccc(-c2ccc3ncnc(Nc4ccc(OCc5cccc(F)c5)c(Cl)c4)c3c2)o1.Cc1ccc(S(=O)(=O)O)cc1 (stereo not drawn) , what half-life is on record?
2.32

Queued: "CSCCNCc1ccc(-c2ccc3ncnc(Nc4ccc(OCc5cccc(F)c5)c(Cl)c4)c3c2)o1.Cc1ccc(S(=O)(=O)O)cc1"
4.43

Next: CS(=O)(=O)CCNCc1ccc(-c2ccc3ncnc(Nc4ccc(OCc5cccc(F)c5)c(Cl)c4)c3c2)o1.Cc1ccc(S(=O)(=O)O)cc1.Cc1ccc(S(=O)(=O)O)cc1.O [LAPATINIB DITOSYLATE]
1.91

---

Would you mind telling me the reported IC50 of each entry?
# measurementTarget: Receptor tyrosine-protein kinase erbB-2 (Homo sapiens)
# Sequence (P04626 whole entry): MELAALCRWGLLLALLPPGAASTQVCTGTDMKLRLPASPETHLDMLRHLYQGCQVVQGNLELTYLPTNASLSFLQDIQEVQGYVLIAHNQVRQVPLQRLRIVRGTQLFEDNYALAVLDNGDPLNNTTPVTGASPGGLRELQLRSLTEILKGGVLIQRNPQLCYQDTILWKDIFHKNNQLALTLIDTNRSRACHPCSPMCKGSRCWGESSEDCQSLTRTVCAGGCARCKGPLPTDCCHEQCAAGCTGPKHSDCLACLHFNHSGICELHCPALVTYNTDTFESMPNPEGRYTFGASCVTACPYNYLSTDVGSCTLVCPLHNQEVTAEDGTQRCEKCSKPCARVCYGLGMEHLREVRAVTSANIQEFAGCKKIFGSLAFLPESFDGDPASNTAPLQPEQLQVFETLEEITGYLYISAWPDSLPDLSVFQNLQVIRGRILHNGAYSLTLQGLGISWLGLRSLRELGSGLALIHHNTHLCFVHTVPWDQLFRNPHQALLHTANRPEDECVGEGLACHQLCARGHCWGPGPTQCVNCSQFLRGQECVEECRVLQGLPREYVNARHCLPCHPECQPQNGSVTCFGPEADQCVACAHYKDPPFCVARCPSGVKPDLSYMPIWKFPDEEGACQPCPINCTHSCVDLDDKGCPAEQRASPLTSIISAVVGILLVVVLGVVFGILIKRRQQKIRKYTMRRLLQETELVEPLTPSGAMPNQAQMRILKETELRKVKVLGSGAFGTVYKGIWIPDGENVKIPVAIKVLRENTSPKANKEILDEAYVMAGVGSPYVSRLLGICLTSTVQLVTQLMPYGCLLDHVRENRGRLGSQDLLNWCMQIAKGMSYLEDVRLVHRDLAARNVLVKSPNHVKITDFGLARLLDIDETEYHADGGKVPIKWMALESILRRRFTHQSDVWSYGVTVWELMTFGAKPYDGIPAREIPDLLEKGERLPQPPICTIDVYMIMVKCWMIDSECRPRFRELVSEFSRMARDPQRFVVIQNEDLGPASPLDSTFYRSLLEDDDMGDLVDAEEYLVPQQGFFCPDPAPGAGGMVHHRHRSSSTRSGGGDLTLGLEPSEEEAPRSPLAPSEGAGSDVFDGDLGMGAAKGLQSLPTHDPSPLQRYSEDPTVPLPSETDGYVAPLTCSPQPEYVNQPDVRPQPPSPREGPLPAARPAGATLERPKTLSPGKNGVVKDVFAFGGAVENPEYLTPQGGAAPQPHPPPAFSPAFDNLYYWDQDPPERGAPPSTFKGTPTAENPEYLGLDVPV
# procedureDetails: Inhibition of HER-2 (unknown origin) using poly-(Glu4-Tyr) as substrate after 1 hr by ELISA-based spectrophotometry
Just the number in nM, nothing appended.

Given "CN1CCN(Cc2ccc(-c3ccc4ncnc(Nc5ccc(OCc6cccc(F)c6)c(Cl)c5)c4c3)o2)CC1" , state its recorded IC50.
23.7

Same question, "Cc1ccc(S(=O)(=O)O)cc1.O=S(=O)(CCNCc1ccc(-c2ccc3ncnc(Nc4ccc(OCc5cccc(F)c5)c(Cl)c4)c3c2)o1)CC(F)(F)F" this time
8.6

"NS(=O)(=O)CCNCc1ccc(-c2ccc3ncnc(Nc4ccc(OCc5cccc(F)c5)c(Cl)c4)c3c2)o1" ?
3.9

What do you get for "CSCCNCc1ccc(-c2ccc3ncnc(Nc4ccc(OCc5cccc(F)c5)c(Cl)c4)c3c2)o1.Cc1ccc(S(=O)(=O)O)cc1" ?
18.3

And then "Cc1ccc(S(=O)(=O)O)cc1.Fc1cccc(COc2ccc(Nc3ncnc4ccc(-c5ccc(CN6CCNCC6)o5)cc34)cc2Cl)c1" , what is it?
12.3

---

# Tested on: BT-474
# procedureDetails: Cytotoxicity against human BT474 cells after 72 hrs by SRB assay
# Format: functional, cell-based
# setupConditions: BT-474, 72 h
measuredEndpoint: pIC50
pIC50 here: minus log base 10 of the concentration, concentration in moles per litre.

// pIC50 lookup, key: "Cc1ccc(S(=O)(=O)O)cc1.O=S(=O)(CCNCc1ccc(-c2ccc3ncnc(Nc4ccc(OCc5cccc(F)c5)c(Cl)c4)c3c2)o1)CC(F)(F)F"
7.58

Another compound to check: "Fc1cccc(COc2ccc(Nc3ncnc4ccc(-c5ccc(CN6CCOCC6)o5)cc34)cc2Cl)c1"
7.07

Try this compound next: "Cc1ccc(S(=O)(=O)O)cc1.Fc1cccc(COc2ccc(Nc3ncnc4ccc(-c5ccc(CN6CCNCC6)o5)cc34)cc2Cl)c1"
7.38

Now give it for CS(=O)(=O)CCNCc1ccc(-c2ccc3ncnc(Nc4ccc(OCc5cccc(F)c5)c(Cl)c4)c3c2)o1.Cc1ccc(S(=O)(=O)O)cc1.Cc1ccc(S(=O)(=O)O)cc1.O [LAPATINIB DITOSYLATE] too.
7.43

Field entry: "CSCCNCc1ccc(-c2ccc3ncnc(Nc4ccc(OCc5cccc(F)c5)c(Cl)c4)c3c2)o1.Cc1ccc(S(=O)(=O)O)cc1"
7.45
